Let's go through some IC50 measurements on EGFR (Homo sapiens, UniProt P00533) together.
Sequence (P00533 25-1210): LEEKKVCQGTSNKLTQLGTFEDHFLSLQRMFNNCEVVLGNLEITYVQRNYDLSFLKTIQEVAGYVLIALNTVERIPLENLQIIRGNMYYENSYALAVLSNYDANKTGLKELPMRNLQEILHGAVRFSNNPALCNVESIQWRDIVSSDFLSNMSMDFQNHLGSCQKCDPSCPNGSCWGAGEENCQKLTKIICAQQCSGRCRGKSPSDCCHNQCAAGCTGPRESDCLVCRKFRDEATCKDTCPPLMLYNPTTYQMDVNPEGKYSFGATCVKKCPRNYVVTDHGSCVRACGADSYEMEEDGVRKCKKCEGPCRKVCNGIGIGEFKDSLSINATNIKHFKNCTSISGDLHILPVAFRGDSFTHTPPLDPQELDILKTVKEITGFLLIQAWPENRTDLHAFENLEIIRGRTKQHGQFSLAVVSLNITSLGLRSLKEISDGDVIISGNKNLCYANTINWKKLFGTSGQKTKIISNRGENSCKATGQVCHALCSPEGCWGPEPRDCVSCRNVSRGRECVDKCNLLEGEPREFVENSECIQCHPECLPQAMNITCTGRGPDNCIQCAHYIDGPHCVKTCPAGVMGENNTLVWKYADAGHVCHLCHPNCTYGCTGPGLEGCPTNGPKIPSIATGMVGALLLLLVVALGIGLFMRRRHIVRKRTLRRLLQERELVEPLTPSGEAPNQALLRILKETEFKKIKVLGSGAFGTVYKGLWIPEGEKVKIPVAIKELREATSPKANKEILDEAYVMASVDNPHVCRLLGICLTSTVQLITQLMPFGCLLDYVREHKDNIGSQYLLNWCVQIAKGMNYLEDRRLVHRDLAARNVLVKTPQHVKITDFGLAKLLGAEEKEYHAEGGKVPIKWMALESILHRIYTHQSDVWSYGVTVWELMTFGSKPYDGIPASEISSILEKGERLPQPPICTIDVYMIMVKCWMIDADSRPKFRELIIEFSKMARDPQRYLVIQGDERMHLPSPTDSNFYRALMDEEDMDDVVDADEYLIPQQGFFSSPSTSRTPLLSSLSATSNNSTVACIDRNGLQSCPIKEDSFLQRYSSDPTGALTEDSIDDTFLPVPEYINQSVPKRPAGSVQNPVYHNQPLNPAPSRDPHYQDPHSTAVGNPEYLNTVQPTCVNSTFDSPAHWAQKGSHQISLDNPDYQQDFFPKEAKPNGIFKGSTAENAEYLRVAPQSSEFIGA

{"compound": "CCNc1nc(-c2cc(OC)cc(OC)c2)c(-c2ccnc(Nc3ccc(N4CCN(C(C)=O)CC4)nc3)n2)s1 [Example 4]", "targetOfAssay": "EGFR (Homo sapiens, UniProt P00533)", "IC50": "> 1000 nM"}
{"compound": "Fc1cc(Nc2nccc(-c3sc(N4CCCC4)nc3-c3cccc(Cl)c3)n2)ccc1OCCN1CCCC1 [Example 103]", "targetOfAssay": "EGFR (Homo sapiens, UniProt P00533)", "IC50": "100 to 1000 nM"}
{"compound": "CCNc1nc(-c2cc(OC)cc(OC)c2)c(-c2ccnc(Nc3cc(F)c(N4CCN(CCS(C)(=O)=O)CC4)c(F)c3)n2)o1 [Example 91]", "targetOfAssay": "EGFR (Homo sapiens, UniProt P00533)", "IC50": "> 1000 nM"}
{"compound": "CCNc1nc(-c2cccc(OC)c2)c(-c2ccnc(Nc3ccc(OCCN(C)C)c(C)c3)n2)s1 [Example 77]", "targetOfAssay": "EGFR (Homo sapiens, UniProt P00533)", "IC50": "< 100 nM"}
